- System: AncSZ;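 also: 11-residue human phosphosite peptides and single-mutation variants displayed on the E. coli surface, counted by deep sequencing, each peptide's frequency after selection divided by its frequency in the unselected input library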;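 also: frequency after pTyr selection over input frequency; kinase dosed for 20-30% of maximal phosphorylation in three min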
- Assay: phosphorylation enrichment, bacterial display (enrichment ratio); higher = better substrate or ligand; peptides without Tyr show the background
// label = 1.0 if phosphorylation enrichment is not less than 0.9, otherwise 0.0

Use these answered entries as a reference point.
chain="GLNKDYRMVVN [HINT1_Y94_G93D]" assayed_target=AncSZ label_value=0.0
chain="EPTPSYEVGQR [TSC2_Y1788_G1787S]" assayed_target=AncSZ label_value=0.0
chain="DIRAQYDELAR [KRT18_Y256]" assayed_target=AncSZ label_value=1.0
chain="EPSVDCCVVKI [CAD_Y735_Y735C]" assayed_target=AncSZ label_value=1.0
chain="SVESPYGSVTF [NDRG2_Y47_T45S]" assayed_target=AncSZ label_value=0.0

phosphorylation enrichment >= 0.9 for TVLEHYRRTHC [MYBPC3_Y1119] ? 0.0

phosphorylation enrichment >= 0.9 for RSGIFYKPESL [L2HGDH_Y103_H98R_YF] ? 1.0

phosphorylation enrichment >= 0.9 for VRHRRYKHTHE [CTCF_Y343] ? 0.0

phosphorylation enrichment >= 0.9 for WISNRSLDFSS [PRPH2_Y184_Y184S] ? 0.0

phosphorylation enrichment >= 0.9 for AGTILYHAHLG [ASS1_Y291_D296G] ? 0.0

phosphorylation enrichment >= 0.9 for PPQFSYGLQTQ [SRA1_Y35] ? 0.0

phosphorylation enrichment >= 0.9 for CSPLLYKVIMS [OR8D4_Y132_R133K] ? 1.0
